B1: MLL5 (parent)
chain: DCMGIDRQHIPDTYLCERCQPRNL

Variants of: B1
Test: protein stability index of a GFP-peptide fusion (GPS, HEK-293T) (PSI 1-6); higher = more stable;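 further: lentivirally expressed fusions sorted by FACS into six bins by GFP to DsRed ratio, PSI derived from sequencing read proportions per bin multiplied by bin number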
Conditions: c terminus: a fixed tail appended
Assign T to entries whose protein stability index meets or exceeds 3; assign F to the rest.

Query :: Determine whether this variant has protein stability index no lower than 3: `P11Q`
Result :: F

Query :: Determine whether this variant has protein stability index no lower than 3: `D6C`
Result :: T

Query :: Determine whether this variant has protein stability index no lower than 3: `E17Y`
Result :: F

Query :: Determine whether this variant has protein stability index no lower than 3: `M3R`
Result :: F

Query :: Determine whether this variant has protein stability index no lower than 3: `Q20D`
Result :: T

Query :: Determine whether this variant has protein stability index no lower than 3: `C16V`
Result :: T

Query :: Determine whether this variant has protein stability index no lower than 3: `C19D`
Result :: T
